system: M14; assay: NCI tumour cell line growth inhibition, 48 h
Activity calls are given as the source filed them. Rule as the data show it: active = GI50 up to about 1.1 µM and inactive = higher.
Result Type: GI50

{"columns": ["Compound", "Observed Result"],
 "data": [
  ["NCC1(N2CCOCC2)C2CCCC21CO (configuration not stated)", "> 100 µM (inactive)"],
  ["CC(=O)N(C(C)=O)n1nc2c(n1)C(=O)c1ccccc1C2=O", "> 100 µM (inactive)"],
  ["CC(C#N)N(CCc1ccccc1)C(=O)c1ccccc1 (configuration not stated)", "> 100 µM (inactive)"],
  ["CCOC(=O)/C(=C/c1cn(C(C)=O)c2ccccc12)P(=O)(OC)OC", "52.4 µM (inactive)"],
  ["Nc1ccc2c(c1)NC(=O)[C@@H]1CCCN1C2=O", "> 100 µM (inactive)"],
  ["CN(C)c1ccc(/C=C/c2ccc(S(N)(=O)=O)cc2)cc1", "15.8 µM (inactive)"],
  ["N=C(N)N/N=C/c1c(-c2ccc(Cl)cc2)nc2sc(Cl)cn12", "1.9 µM (inactive)"],
  ["CCN1C(=O)c2cc(OC)c(OC)cc2C(=O)C12OC(=O)c1cc3c(cc12)OCO3 (configuration not stated)", "97.3 µM (inactive)"],
  ["CCCCCCCCCCCCCc1nnn[nH]1", "17.5 µM (inactive)"],
  ["NCCOc1ccccn1", "> 100 µM (inactive)"],
  ["O=C(/N=N/c1ccccc1Br)NNc1ccccc1Br", "60.8 µM (inactive)"],
  ["O=C(O)CCCn1nnc2c(=O)[nH][nH]c(=O)c21", "> 100 µM (inactive)"]
]}
